For each of the compounds below, state its IC50.
- Assay Target: HER-2 (Homo sapiens)
- Construct: His6 with thrombin site (N)
- Sequence (P04626 679-1255): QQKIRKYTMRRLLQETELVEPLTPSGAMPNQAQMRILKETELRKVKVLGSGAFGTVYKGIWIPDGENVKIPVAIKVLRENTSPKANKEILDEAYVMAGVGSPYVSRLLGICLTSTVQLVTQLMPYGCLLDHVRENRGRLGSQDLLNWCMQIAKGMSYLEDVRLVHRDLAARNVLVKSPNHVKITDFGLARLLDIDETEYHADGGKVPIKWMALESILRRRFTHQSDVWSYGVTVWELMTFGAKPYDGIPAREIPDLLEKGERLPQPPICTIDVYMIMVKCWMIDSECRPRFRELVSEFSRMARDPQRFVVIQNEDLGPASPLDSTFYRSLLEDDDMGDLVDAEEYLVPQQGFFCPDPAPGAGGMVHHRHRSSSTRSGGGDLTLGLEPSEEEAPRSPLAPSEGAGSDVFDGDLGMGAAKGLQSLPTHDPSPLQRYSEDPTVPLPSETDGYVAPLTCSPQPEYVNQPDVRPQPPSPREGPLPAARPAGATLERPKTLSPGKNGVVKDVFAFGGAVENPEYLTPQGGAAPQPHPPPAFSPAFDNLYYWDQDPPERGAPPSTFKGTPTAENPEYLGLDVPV
- Measurement Protocol: HER-2 Kinase Assay
- Condition Info: value in parentheses

Use the examples below as a reference point.
CN(C)C1CCN(Cc2ccc(NC(=O)c3sc4ncnc5c4c3NC(=O)N5c3ccc(Oc4ccccc4)cc3)cc2)CC1: 28 nM
CC(C)(C)OC(=O)N1CCC(NC(=O)c2sc3ncnc4c3c2NC(=O)N4c2ccc3c(ccn3Cc3cccc(F)c3)c2)CC1: 2180 nM
O=C(Nc1ccc(CN2CCCCC2)cc1)c1sc2ncnc3c2c1NC(=O)N3c1ccc(OCc2ccco2)c(Cl)c1: 85 nM
COc1ccc(N2C(=O)Nc3c(C(=O)Nc4ccc(CCN5CCCCC5)cc4)sc4ncnc2c34)cc1Cl: 11700 nM
Cc1ccc(Oc2ccc(N3C(=O)Nc4c(C(=O)Nc5ccc(CN6CCOCC6)cc5)sc5ncnc3c45)cc2C)cn1: 1090 nM
O=C(Nc1ccc(CN2CCCCC2)cc1)c1sc2ncnc3c2c1NC(=O)N3c1ccc2nc(Cc3cccc(F)c3)[nH]c2c1: > 1000 nM

Parameters: items (list). Returns: IC50 for each item.
1. CN1CCC(NC(=O)c2sc3ncnc4c3c2NC(=O)N4c2ccc3c(cnn3Cc3cccc(F)c3)c2)CC1
2. O=C(NCCCO)c1sc2ncnc3c2c1NC(=O)N3c1ccc(F)c(Br)c1
3. O=C(Nc1ccc(CN2CCOCC2)c(O)c1)c1sc2ncnc3c2c1NC(=O)N3c1ccc(Oc2ccccc2)cc1
4. O=C(Nc1ccc(CN2CCCCC2)cc1)c1sc2ncnc3c2c1NC(=O)N3c1ccc(OCc2cccs2)c(Cl)c1
5. COc1ccc(N2C(=O)Nc3c(C(=O)Nc4ccc(CN5CCOCC5)cc4)sc4ncnc2c34)cc1Cl
6. O=C(Nc1ccc(CN2CCOCC2)cc1)c1sc2ncnc3c2c1NC(=O)N3c1ccc(Oc2cccnc2)c(Cl)c1

1. 1500 nM
2. > 10000 nM
3. 19 nM
4. 33 nM
5. 1440 nM
6. 57 nM

Parameters: items (list). Returns: IC50 for each item.
1. CC(C)(C)OC(=O)N1CCC(NC(=O)c2sc3ncnc4c3c2NC(=O)N4c2ccc(N3CCOCC3)cc2)CC1
2. O=C(Nc1ccc(CN2CCOCC2)cc1)c1sc2ncnc3c2c1NC(=O)N3c1ccc(F)c(Cl)c1
3. CN1CCN(Cc2ccc(NC(=O)c3sc4ncnc5c4c3NC(=O)N5c3ccc(Oc4ccccc4)c(F)c3)cc2)CC1

> 100000 nM
804 nM
182 nM
